- experimentalTarget: X-box-binding protein 1 (Homo sapiens) (UniProt P17861)
- Sequence (P17861 whole entry, looked up): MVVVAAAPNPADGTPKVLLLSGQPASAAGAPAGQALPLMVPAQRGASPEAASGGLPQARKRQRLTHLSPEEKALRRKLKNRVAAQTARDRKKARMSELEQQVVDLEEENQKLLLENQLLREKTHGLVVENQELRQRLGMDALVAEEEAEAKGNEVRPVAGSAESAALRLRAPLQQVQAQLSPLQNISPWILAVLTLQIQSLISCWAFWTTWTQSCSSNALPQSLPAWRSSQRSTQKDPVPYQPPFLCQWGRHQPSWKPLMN
- methodNotes: ATG_Xbp1_CIS: Attagene CIS-FACTORIAL HepG2 Assay for human X-box Binding Protein 1 (XBP1) (AID 2282972)
- conditionLabel: HepG2 XBP1 cis-element reporter, Attagene multiplex; actives raise or lower the signal
Calls of active or inactive are those of the source. Rule for the calls: active = hit-call score of the fitted dose curve at least 0.9, where 1 is the maximum; inactive = score below 0.9.
Answer with one of the outcomes YES = active, NO = inactive

Below, 3 compounds whose answers are already recorded.
# compound, qualitativeLabel
measured = [
    ("CC(C)=CCCC(C)=CC(=O)O", "NO"),
    ("CCC(C)(C)c1cc(O)c(C(C)(C)CC)cc1O", "YES"),
    ("O=S(=O)(O)c1cc(S(=O)(=O)O)c2c(N=Nc3ccccc3)c(O)ccc2c1", "NO"),
]

**Q:** Look up the recorded call for "CC/C=C\CCCCO" in this test.
**A:** NO

**Q:** Would you mind telling me which call this test gave CC(CCO)CC(C)(C)C (centres undefined) ?
**A:** NO

**Q:** What call does the record list for "CC1=CC[C@@H](C(C)(C)O)CC1" ?
**A:** NO

**Q:** Could you please tell me the result logged for "CC(C)(O)CCc1ccccc1" in this assay?
**A:** NO

----------
- experimentalTarget: Aryl hydrocarbon receptor (Homo sapiens) (UniProt P35869)
- Sequence (P35869 whole entry, looked up): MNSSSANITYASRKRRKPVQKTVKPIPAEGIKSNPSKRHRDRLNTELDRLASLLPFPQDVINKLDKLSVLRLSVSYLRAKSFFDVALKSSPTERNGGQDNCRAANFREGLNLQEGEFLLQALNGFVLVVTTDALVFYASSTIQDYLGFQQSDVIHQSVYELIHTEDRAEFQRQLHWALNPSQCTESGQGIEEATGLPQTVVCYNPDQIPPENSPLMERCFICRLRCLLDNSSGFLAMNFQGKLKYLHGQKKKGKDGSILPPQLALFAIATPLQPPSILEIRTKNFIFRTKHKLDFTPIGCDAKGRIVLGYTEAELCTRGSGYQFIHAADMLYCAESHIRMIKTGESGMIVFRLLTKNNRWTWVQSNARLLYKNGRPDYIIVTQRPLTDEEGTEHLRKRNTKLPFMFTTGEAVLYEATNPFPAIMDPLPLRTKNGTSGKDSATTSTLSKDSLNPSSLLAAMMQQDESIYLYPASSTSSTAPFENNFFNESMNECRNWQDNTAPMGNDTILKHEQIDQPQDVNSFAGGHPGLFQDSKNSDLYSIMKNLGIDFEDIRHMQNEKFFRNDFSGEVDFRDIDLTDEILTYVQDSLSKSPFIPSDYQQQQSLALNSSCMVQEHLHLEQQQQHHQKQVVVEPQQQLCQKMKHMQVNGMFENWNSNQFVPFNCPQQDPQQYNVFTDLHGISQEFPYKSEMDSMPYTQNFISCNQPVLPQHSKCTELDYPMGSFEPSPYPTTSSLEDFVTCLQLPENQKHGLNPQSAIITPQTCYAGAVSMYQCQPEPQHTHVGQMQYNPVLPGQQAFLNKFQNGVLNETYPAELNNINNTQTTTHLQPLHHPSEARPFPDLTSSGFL
- methodNotes: ATG_Ahr_CIS: Attagene CIS-FACTORIAL HepG2 Assay for human Aryl Hydrocarbon Receptor (Ahr) (AID 2282930)
- conditionLabel: HepG2 AhR cis-factorial reporter transcription; actives raise or lower the signal
Calls of active or inactive are those of the source. How the source made its calls: active means hit-call score of the fitted dose curve at least 0.9, where 1 is the maximum; inactive means score below 0.9.
The reply should name one outcome from TRUE for active, FALSE for inactive

As a guide, the following entries are already answered.
# compound, qualitativeLabel
rows = [
    ("CC(C)N(c1ccccc1)C(C)C", "FALSE"),
    ("c1ccc(Sc2ccccc2)cc1", "FALSE"),
]

**Q:** Would you mind telling me which call this test gave CC1=CC(O)CC(C)(C)C1 (stereo not drawn) ?
**A:** TRUE

**Q:** What did the test return for "CC(=O)c1ccc(O)cc1" ?
**A:** FALSE

**Q:** Just curious, what result did CC1COC(=O)O1 (stereo not drawn) get here?
**A:** FALSE

----------
- experimentalTarget: human Thyroid Receptor alpha (THRa1), THRA (gene 7067) (UniProt P10827)
- Sequence (P10827 whole entry, looked up): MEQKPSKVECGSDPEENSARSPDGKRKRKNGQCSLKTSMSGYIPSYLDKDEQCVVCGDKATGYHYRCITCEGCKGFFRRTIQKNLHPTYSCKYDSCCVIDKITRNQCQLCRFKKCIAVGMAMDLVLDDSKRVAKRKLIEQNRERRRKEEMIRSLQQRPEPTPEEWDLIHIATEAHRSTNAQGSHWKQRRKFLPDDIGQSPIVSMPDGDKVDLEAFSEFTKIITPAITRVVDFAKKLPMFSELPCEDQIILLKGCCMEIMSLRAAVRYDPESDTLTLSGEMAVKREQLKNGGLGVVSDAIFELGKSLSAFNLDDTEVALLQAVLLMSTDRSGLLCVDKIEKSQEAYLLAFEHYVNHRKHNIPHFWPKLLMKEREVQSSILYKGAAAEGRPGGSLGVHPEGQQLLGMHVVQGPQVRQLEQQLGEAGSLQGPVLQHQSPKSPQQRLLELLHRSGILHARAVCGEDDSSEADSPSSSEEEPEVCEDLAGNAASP
- methodNotes: ATG_THRa1_TRANS: Attagene TRANS-FACTORIAL HepG2 Assay for human Thyroid Receptor alpha (THRa1) (AID 2283014)
Results filed as inconclusive are left out. Calls of active or inactive are those of the source. Rule for the calls: active = hit-call score of the fitted dose curve at least 0.9, where 1 is the maximum; inconclusive = response in the unintended direction; inactive = score below 0.9.
Just give me one of these, please: active, inactive

**Q:** What outcome does the record of this test show for "C1CCCNCC1" ?
**A:** inactive

**Q:** Please state the recorded outcome for this compound: "Nc1ccc(N)c([N+](=O)[O-])c1"
**A:** inactive

**Q:** For "COc1ccc(N)c(C)c1" , what call appears in the results of this test?
**A:** active

**Q:** Test call, this compound: "NC(=O)c1c(Cl)cccc1Cl"
**A:** inactive

----------
- methodNotes: ATG_PXRE_CIS: Attagene CIS-FACTORIAL HepG2 Assay for human Pregnane X Receptor Element (PXRE) (AID 2282957)
- conditionLabel: HepG2 Attagene CIS-FACTORIAL PXRE reporter, mRNA; actives raise or lower the signal
- Protocol: ATG_CIS is a cell-based, multiplexed-readout assay that uses HepG2, a human liver cell line, with measurements taken at 24 hours after chemical dosing in a 24-well plate.ATG_PXRE_CIS is one of 52 assay component(s) measured or calculated from the ATG_CIS assay. […] This assay endpoint, ATG_PXRE_CIS, was analyzed with bidirectional fitting relative to DMSO as the negative control and baseline of activity. […]
The source made the active and inactive calls. How the source made its calls: active means hit-call score of the fitted dose curve at least 0.9, where 1 is the maximum; inactive means score below 0.9.
quantity: AC50

Previously resolved entries follow.
# smilesNotation, AC50
measured = [
    ("CCCCN(CCCC)CCCCCCN(CCCC)CCCC", "inactive"),
    ("CCC(=O)OCC=Cc1ccccc1", "33.1 µM (active)"),
    ("CC(C)OB(OC(C)C)OC(C)C", "inactive"),
    ("Brc1cc(Br)cc(Br)c1", "100 µM (active)"),
]

The record that follows has no AC50 shown yet.
**Q:** Quick check: AC50 of "CC1=C(C=O)C(C)(C)CCC1" ?
**A:** 1.75 µM (active)
